- tested on: GluA1o-γ8 (GRIA1o-CACNG8 fusion construct) (Homo sapiens (Human), UniProt P42261+Q8WXS5)
- Sequence (P42261 other isoform, or with tags, fused parts or gaps): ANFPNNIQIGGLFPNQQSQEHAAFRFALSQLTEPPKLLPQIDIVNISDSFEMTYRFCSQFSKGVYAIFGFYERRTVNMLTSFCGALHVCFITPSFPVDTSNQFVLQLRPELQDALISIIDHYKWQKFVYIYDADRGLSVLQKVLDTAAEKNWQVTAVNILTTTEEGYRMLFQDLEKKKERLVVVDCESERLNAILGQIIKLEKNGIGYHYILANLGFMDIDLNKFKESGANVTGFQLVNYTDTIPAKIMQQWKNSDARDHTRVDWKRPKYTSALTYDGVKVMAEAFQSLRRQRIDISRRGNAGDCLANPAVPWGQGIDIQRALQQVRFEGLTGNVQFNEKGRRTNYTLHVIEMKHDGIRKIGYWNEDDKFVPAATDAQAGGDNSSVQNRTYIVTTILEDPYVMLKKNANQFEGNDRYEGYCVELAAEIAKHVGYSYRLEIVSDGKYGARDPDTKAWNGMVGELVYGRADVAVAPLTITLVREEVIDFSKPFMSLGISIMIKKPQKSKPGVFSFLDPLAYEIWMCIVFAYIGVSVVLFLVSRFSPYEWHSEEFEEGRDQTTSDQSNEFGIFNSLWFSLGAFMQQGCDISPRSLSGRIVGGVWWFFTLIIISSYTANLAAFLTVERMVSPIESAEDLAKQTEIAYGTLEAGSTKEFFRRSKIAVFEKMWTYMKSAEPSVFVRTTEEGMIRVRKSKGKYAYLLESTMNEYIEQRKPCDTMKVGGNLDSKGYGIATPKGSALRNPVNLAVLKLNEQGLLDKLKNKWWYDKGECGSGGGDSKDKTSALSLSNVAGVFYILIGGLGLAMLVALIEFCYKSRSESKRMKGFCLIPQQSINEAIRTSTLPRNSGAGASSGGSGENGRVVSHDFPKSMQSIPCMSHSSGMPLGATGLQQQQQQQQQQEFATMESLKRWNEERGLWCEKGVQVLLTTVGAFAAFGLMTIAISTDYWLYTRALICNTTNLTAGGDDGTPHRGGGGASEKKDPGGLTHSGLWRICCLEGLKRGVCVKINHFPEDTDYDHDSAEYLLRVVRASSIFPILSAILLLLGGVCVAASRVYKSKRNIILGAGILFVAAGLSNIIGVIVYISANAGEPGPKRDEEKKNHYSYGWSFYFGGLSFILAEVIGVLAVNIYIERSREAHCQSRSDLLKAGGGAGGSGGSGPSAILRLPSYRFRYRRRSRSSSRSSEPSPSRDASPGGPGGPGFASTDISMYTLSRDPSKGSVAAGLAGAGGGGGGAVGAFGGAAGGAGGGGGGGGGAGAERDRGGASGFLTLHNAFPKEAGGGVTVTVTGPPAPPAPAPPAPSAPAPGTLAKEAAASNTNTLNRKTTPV
- protocol text: Calcium flux assay (FLIPR), inhibition of TARP γ8 dependent AMPA receptor activity
- stated conditions: GluA1o-γ8 (GRIA1o-CACNG8 fusion) in HEK293 cells, calcium flux after 15 μM glutamate
pIC50: −log10 of the molar value.
observation type: pIC50

Cc1cc2ccc(C(F)(F)F)nc2n1-c1cc(Cl)c2[nH]ncc2c1; 10.90
Nc1ccc2nc(-c3ccc(F)cc3)n(-c3ccc4[nH]c(=O)sc4c3)c2n1; 7.20

1: O=C(Nc1ccccc1)c1nc2ccc(C(F)(F)F)nc2n1-c1ccc2[nH]ncc2c1
2: Fc1ccc(-c2nc3ccc(C(F)F)nc3n2-c2cc(Cl)c3[nH]ncc3c2)cc1
Ask: I'm curious whether 1 or 2 has the smaller pIC50 number. Which is it? Record your answer as the label of the chosen record.
Reply: 1

###

- tested on: GluA1o-γ8 (GRIA1o-CACNG8 fusion construct) (Homo sapiens (Human), UniProt P42261+Q8WXS5)
- protocol text: Calcium flux assay (FLIPR), inhibition of TARP γ8 dependent AMPA receptor activity
- stated conditions: GluA1o-γ8 (GRIA1o-CACNG8 fusion) in HEK293 cells, calcium flux after 15 μM glutamate
- Protocol: This assay was used to test compounds for their ability to inhibit TARP γ8 dependent AMPA receptor activity. The AMPA receptor is a non-selective cation channel activated by glutamate. […] Cell expressing the GRIA1o-CACNG8 fusion construct were grown in a monolayer in 96- or 384-well microtiter plates. […] Calcium flux following the addition of 15 μM glutamate was monitored using a Molecular Devices FLIPR Tetra. […]
observation type: IC50 (nM)

In the examples that follow, each entry is paired with its recorded IC50.
FC(F)(F)c1ccc2nc(NC3CCCCC3)n(-c3ccc4[nH]ncc4c3)c2n1 [Example 131]; 158
CC(F)(F)c1nc2ccc(C(F)(F)F)nc2n1-c1ccc2c(c1)CC(=O)N2 [Example 93]; 7.94

I: [O-][n+]1cc(-n2c(C(F)(F)F)nc3ccc(C(F)(F)F)nc32)cc2cn[nH]c21 [Example 205]
II: CC(C)c1nc2ccc(C(F)F)nc2n1-c1ccc2[nH]ncc2c1 [Example 210]
Ask: Thinking about recorded IC50 values, which is higher, I or II ? Answer with the label corresponding to your selection.
Reply: I

###

- tested on: GluA1o-γ8 (GRIA1o-CACNG8 fusion construct) (Homo sapiens (Human), UniProt P42261+Q8WXS5)
- protocol text: Calcium flux assay (FLIPR), inhibition of TARP γ8 dependent AMPA receptor activity
- stated conditions: GluA1o-γ8 (GRIA1o-CACNG8 fusion) in HEK293 cells, calcium flux after 15 μM glutamate
observation type: IC50 (nM)

Solved cases (2 shown):
CCC(C)c1nc2ccc(C(F)(F)F)nc2n1-c1ccc2c(c1)CC(=O)N2 (racemic); 6.31
COc1ccc2nc(C3CC3)n(-c3ccc4[nH]ncc4c3)c2n1; 12.6

A: CCc1nc2ccc(C(F)(F)F)nc2n1-c1cc(C)c2[nH]ncc2c1
B: Cc1c(Br)c2ccc(C(F)(F)F)nc2n1-c1cnc2c(c1)CC(=O)N2
Ask: For the pair A and B , which member has the lower IC50 number? Answer format: the label of the selected item.
Reply: A
(A: 0.1 nM, B: 25.1 nM)
